Reference source for all entries: ChEMBL document CHEMBL5724796

SYSTEM_TESTED: Fibroblast growth factor receptor 2 (Homo sapiens)
CONDITION_NOTES: Compound concentration 20.0 uM
Description: Thermal Shift Assay. Domain: start/stop: T457-E768
ΔTm under 0.04 °C gets rule met, anything at or over 0.04 °C gets rule not met.

• Cc1cc(Cl)cc(-c2c3sc(CN4C(=O)C5C(C4=O)C5(C)C)cc3nn2C)c1OC1CCNCC1 (stereo not given) = rule met

Ask: Is ΔTm strictly under 0.04 °C for the entry C[C@@H]1CCC[C@H](C)N1NC(=O)c1ccc(Cl)c(S(N)(=O)=O)c1 ?
Result: rule met

Ask: Is ΔTm strictly under 0.04 °C for the entry CCOc1ccc(S(=O)(=O)Nc2ccc(Cl)cc2C#Cc2cnc(C(=O)O)cc2OC)c2ncccc12 ?
Result: rule not met

Ask: Is ΔTm strictly under 0.04 °C for the entry N#Cc1ccc(N2N=C3c4ccc(C(=O)O)cc4CC[C@@H]3[C@@H]2C2CCCC2)cc1Cl ?
Result: rule met
